assay: beta-catenin nuclear localization change in HeLa – imaging, HeLa cells, immunofluorescence, high-content, primary screen (AID 1665); details: at 5 µM; HeLa beta-catenin nuclear translocation, measured here: cell count, cytotoxicity flag
Out of some 190,000 compounds screened, about 590 (0.31%) were called active. This is one part of a sample in which actives are shown more often than they occur.
Kindly supply the reported cell count values for the records listed here.
Give the number; cells is assumed, so skip it.

For this molecule ( CCOC(=O)c1cc(NC(=O)c2cccnc2)cc(C(=O)OCC)c1 ), measured cell count is 1120

For this molecule ( CCOC(=O)C1CCN(c2c(Nc3cc(C)cc(C)c3)c(=O)c2=O)CC1 ), measured cell count is 1340

For this molecule ( O=C(Nc1ccc(S(=O)(=O)Nc2nccs2)cc1)c1cccc(S(=O)(=O)N2CCOCC2)c1 ), measured cell count is 1290

For this molecule ( O=C(COc1ccccc1)N1CCN=C1SCc1cccc(F)c1 ), measured cell count is 1330

For this molecule ( Cc1cc2c(cc1C)N(Cc1ccccc1)C1=NCCCN12 ), measured cell count is 1210

For this molecule ( COc1ccccc1/C=N\Nc1cc(C)nc(-n2nc(C)cc2C)n1 ), measured cell count is 900

For this molecule ( Cc1cc(Nc2ccc(Cl)cc2)nc(N2CCOCC2)n1 ), measured cell count is 1280

For this molecule ( COc1ccc(Nc2cc(C)nc(-n3nc(C)cc3C)n2)cc1 ), measured cell count is 451

For this molecule ( CCc1ccccc1NC(=O)CSc1nnc(CCNC(=O)OC(C)(C)C)o1 ), measured cell count is 1310

For this molecule ( CCOC(=O)c1ccc(-c2ccc(C(=O)Nc3cccnc3)o2)cc1 ), measured cell count is 659

For this molecule ( O=C(NC1CCCCC1)c1cc(C2CC2)on1 ), measured cell count is 1290

For this molecule ( O=C(NCc1ccco1)C1CCCN1S(=O)(=O)c1ccccc1C(F)(F)F (configuration not stated) ), measured cell count is 1300

---

experiment: beta-catenin nuclear localization change in HeLa – imaging, HeLa cells, immunofluorescence, high-content, primary screen (AID 1665); conditions: at 5 µM
Screen size: about 190,000 compounds; about 590 (0.31%) were called active.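 How the source made its calls: active means nuclear translocation activity above 50% at 5 µM, with a well cell count of 50 or more; inconclusive means wells under 50 cells across six images, flagged as toxic; inactive means the rest.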 Only a selection was taken, and actives are over-represented in it overall.
Please state which outcome applies, choosing from class 1 for active, class 0 for inactive

Hi, do you know how CC(C)c1c(O)nc(SCCOc2ccc(Cl)cc2)[nH]c1=O came out in this test? class 0

Hi, do you know how COc1ccc(NC(=O)C2CCC(CNc3c(N4CCCCC4)c(=O)c3=O)CC2)c(OC)c1 (stereo unspecified) came out in this test? class 0

Hi, do you know how CCOc1cccc(-c2nnc3sc(COc4ccc(OC)cc4)nn23)c1 came out in this test? class 0

Hi, do you know how COC(=O)c1c(C)oc(C)c1S(=O)(=O)Nc1ccc(C(C)C)cc1 came out in this test? class 0

Hi, do you know how CCn1c(=O)c([N+](=O)[O-])c(NCc2ccc3c(c2)OCO3)c2ccccc21 came out in this test? class 0

Hi, do you know how COc1cc(C=O)ccc1Oc1nnnn1-c1ccccc1 came out in this test? class 0

Hi, do you know how CC(CNS(=O)(=O)c1ccc(Br)cc1)CN(C)C (stereo unspecified) came out in this test? class 0

Hi, do you know how CCS(=O)(=O)c1cc([N+](=O)[O-])c(Sc2ccccc2N)s1 came out in this test? class 0

Hi, do you know how CSC1=NCCN1C(=O)Cc1cccc2ccccc12 came out in this test? class 0

Hi, do you know how CCOC(=O)c1ccc(-c2ccc(C(=O)Nc3cccnc3)o2)cc1 came out in this test? class 1

Hi, do you know how COc1ccc(-n2nnnc2-c2nc3ccccc3s2)cc1 came out in this test? class 0
